# TARGET: T1, human MSLN-R1-his protein (human, UniProt Q13421 296-390)
# T1 construct: also called hMSLN-R1-his; human MSLN-R1 protein; not shown: His tag
# T1 chain: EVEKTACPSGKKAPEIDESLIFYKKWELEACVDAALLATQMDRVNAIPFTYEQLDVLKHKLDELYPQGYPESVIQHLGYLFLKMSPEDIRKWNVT
# PROCEDURE SUMMARY: ELISA, coated antigen; antibody 100 nM
READOUT NAME: OD450

- BINDER: "S009-F1.57.1 human-murine chimeric antibody (antibody, human IgG1, kappa, V domains shown, Chimeric IgG1/kappa) VH: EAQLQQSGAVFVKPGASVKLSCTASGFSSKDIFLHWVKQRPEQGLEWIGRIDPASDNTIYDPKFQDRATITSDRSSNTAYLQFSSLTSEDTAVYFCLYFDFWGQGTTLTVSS VL: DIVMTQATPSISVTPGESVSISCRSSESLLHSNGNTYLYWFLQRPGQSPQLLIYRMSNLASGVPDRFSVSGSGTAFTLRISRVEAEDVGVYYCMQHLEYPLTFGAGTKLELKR"
  RESULT VALUE: 0.07
- BINDER: "S009-F1.25.10 human-murine chimeric antibody (antibody, human IgG1, kappa, V domains shown, Chimeric IgG1/kappa) VH: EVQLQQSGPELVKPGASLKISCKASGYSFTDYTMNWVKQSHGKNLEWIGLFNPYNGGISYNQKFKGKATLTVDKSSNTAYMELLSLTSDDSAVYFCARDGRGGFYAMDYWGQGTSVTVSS VL: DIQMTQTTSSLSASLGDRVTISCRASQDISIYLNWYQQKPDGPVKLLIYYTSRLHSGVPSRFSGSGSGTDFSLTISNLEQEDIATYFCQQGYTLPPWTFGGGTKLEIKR"
  RESULT VALUE: 0.05

Measured values drawn from patent US20250250357A1 for this set.
